- Test system: Vero E6 infected with SARS-CoV-2
- PROTOCOL DESCRIPTION: SARS-CoV-2 infection rate relative to infected DMSO; higher = more infection, active = 60 or less
- EXPERIMENTAL PARAMETERS: 24 h
I'd be grateful if you could share measured SARS-CoV-2 infection rate for these entries.

Worked examples follow.
Cc1ccc(C(=O)Nc2cccc(C(F)(F)F)c2)cc1Nc1nc(-c2cccnc2)nc2c1cnn2C (10 µM) ... 74% (inactive)
COc1ccc2nc3cc(Cl)ccc3c(Nc3cc(CN4CCCC4)c(O)c(CN4CCCC4)c3)c2n1 [pyronaridine] (0.833333 µM) ... 100% (inactive)
CC(C)(O)C(=O)Nc1ccc([N+](=O)[O-])c(C(F)(F)F)c1 [2-hydroxyflutamide] (10 µM) ... 108% (inactive)
CC/C(=C(\c1ccccc1)c1ccc(OCCN(C)C)cc1)c1ccccc1 [tamoxifen] (0.833333 µM) ... 95.5% (inactive)
Cc1ccc(C(=O)c2ccc(CC(=O)O)n2C)cc1 [tolmetin] (10 µM) ... 106% (inactive)

Look up SARS-CoV-2 infection rate for the entries below, preserving their order.
1. O=C(O)c1cc2cccc([N+](=O)[O-])c2[nH]1 (10 µM)
2. COc1ccc(-c2coc3cc(O)ccc3c2=O)cc1 [formononetin] (10 µM)
3. Cc1cc(Cn2nnc3c(-c4ccco4)nc(N)nc32)ccc1N [vipadenant] (10 µM)
4. CN(C)CCOC(c1ccccc1)c1ccccc1 [diphenhydramine] (10 µM)
5. C=C1CC/C=C(\C)CC[C@@H]2[C@@H]1CC2(C)C [g-caryophyllene] (10 µM)

["100% (inactive)", "106% (inactive)", "110% (inactive)", "86.5% (inactive)", "95% (inactive)"]

All figures here come from the supplement of paper PMC13380429.
